Data origin, for the record: ChEMBL document CHEMBL4732179

experiment: Inhibition of Influenza A virus A/Puerto Rico/8/1934(H1N1) neuraminidase using MUNANA as substrate measured after 60 mins by fluorescence assay
pIC50: −log10 of the molar value.

{"columns": ["compound", "pIC50"],
 "data": [
  ["COc1cccc(/C=C2\\S/C(=N/c3nc(C(C)C)c(C(C)=O)s3)NC2=O)c1O", 4.54],
  ["CC(=O)c1sc(/N=C2\\NC(=O)/C(=C/c3ccc(O)cc3)S2)nc1C", 4.69],
  ["COc1cccc(/C=C2\\S/C(=N/c3nc(C(C)(C)C)c([N+](=O)[O-])s3)NC2=O)c1O", 4.26],
  ["COc1cc(/C=C2\\S/C(=N/c3nc(C(C)C)c(C(C)=O)s3)NC2=O)ccc1O", 4.64],
  ["COc1cc(/C=C/C(=O)O)ccc1O [FERULATE]", 3.85]
]}
